# Test system: A498 renal
# Assay Notes: NCI-60 one-dose screen, 48 h
# Run Conditions: 10 µM unless noted
About 83,000 compounds went through this panel and 20% of them were active in at least one assay; those are over-represented in the sample as a whole. Activity calls are given as the source filed them. Rule for the calls: active = growth percent below 10; inactive = the rest.
Entry note: the call must match one of label 1 for active, label 0 for inactive

Lab log entry: CC1=C(C)C(=O)C(Nc2cccc(C(F)(F)F)c2)=C(Cl)C1=O — outcome as called in the assay?
label 0

Write down the call the test reported for this molecule. Item: CCOC(=O)c1csc(NC(=O)CSc2nc3sc4c(c3c(=O)n2-c2ccc(Cl)cc2)CCCC4)n1
label 0

I would be grateful if you could indicate the recorded call for CCN(CC)c1ccc(C=O)c(OCc2cn(CC(=O)Nc3ccc(Cl)cc3)nn2)c1 .
label 0

Please let me know the test result on file for N#Cc1c(-c2ccc(Cl)cc2)nc(SCc2ccc([N+](=O)[O-])cc2)nc1N1CCNCC1 .
label 0

Please share the test call associated with N#Cc1nc(-c2ccccc2)oc1S(N)(=O)=O .
label 0

State the result this test recorded for Cn1cc(-c2cc(N)n3nc(-c4cn(C)c5ccc(Br)cc45)cc3n2)c2cc(Br)ccc21 .
label 0

Hi team, can someone confirm the assay call for CCN1CCN(/C(=N\c2sc(-c3ccccc3)nc2-c2ccccc2)c2ccccc2)CC1 ?
label 0

Give the logged outcome of this assay for the following molecule: CCOC(=O)c1sc(NCC(=O)Nc2cccc([N+](=O)[O-])c2)c(C(=O)OCC)c1C
label 1

Outcome? Cc1cccc(/C=C/c2nn3c(-c4ccco4)nnc3s2)c1
label 0
